Reported RLM by item:
# Experiment notes: Metabolic stability assay in rat liver microsomes (RLM)
# Format: in vitro ADME
# Assay context: rat, microsomes, 1 μM

Compound	RLM [mL/min/kg]
Cc1cc(O)cc2[nH]cc(C(=O)OCC34CCN(CC3)CC4)c12 [Compound 83]	14.09
CC(=O)Nc1cc(C)c2c(C(=O)OCC34CCN(CC3)CC4)c[nH]c2c1 [Compound 93]	12.66
Cc1ccc2[nH]cc(C(=O)OCC34CCN(CC3)CC4)c2c1Br [Compound 68]	1271.39
COc1c(C)ccc2[nH]cc(C(=O)OCC34CCN(CC3)CC4)c12 [Compound 75]	474.267
COc1c(OCC(F)(F)F)ccc2[nH]cc(C(=O)OCC34CCN(CC3)CC4)c12 [Compound 88]	25.96
Cc1cc(C)c2c(C(=O)OCC34CCN(CC3)CC4)c[nH]c2c1 [Compound 54]	175.357
COc1cc2c(C(=O)OCC34CCN(CC3)CC4)c[nH]c2cc1Cl [Compound 69]	238.87
COc1ccc2[nH]cc(C(=O)OCC34CCN(CC3)CC4)c2c1OC [Compound 40]	49.42
Cc1ccc2[nH]cc(C(=O)OCC34CCN(CC3)CC4)c2c1C [Compound 70]	1349.06

* * *

# Experiment notes: Human plasma stability
# Format: in vitro ADME
# Assay context: human, plasma, 2 h, 5 μM
Counter-ions that a name gives are not always drawn.

Compound	% Remaining @ 2 h, %
COc1cc2c(C(=O)OCC34CCN(CC3)CC4)c[nH]c2cc1Cl [Compound 69]	78.66
Cc1ccc2[nH]cc(C(=O)OCC34CCN(CC3)CC4)c2c1Br [Compound 68]	103.13
O=C(OCC12CCN(CC1)CC2)c1c[nH]c2cc(O)cc(Cl)c12 [Compound 46]	91.9
Cc1cc(C)c2c(C(=O)OCC34CCN(CC3)CC4)c[nH]c2c1 [Compound 54]	89.87
Cc1c(OCCO)ccc2[nH]cc(C(=O)OCC34CCN(CC3)CC4)c12 [Compound 95, 2,2,2-trifluoroacetate salt]	73.17
O=C(OCC12CCN(CC1)CC2)c1c[nH]c2cc(Cl)cc(Br)c12 [Compound 42]	72.21
COc1ccc2[nH]cc(C(=O)OCC34CCN(CC3)CC4)c2c1OC [Compound 40]	106.8

* * *

# Target or system: UniProt P36544
# Sequence (P36544 23-502 limits assumed): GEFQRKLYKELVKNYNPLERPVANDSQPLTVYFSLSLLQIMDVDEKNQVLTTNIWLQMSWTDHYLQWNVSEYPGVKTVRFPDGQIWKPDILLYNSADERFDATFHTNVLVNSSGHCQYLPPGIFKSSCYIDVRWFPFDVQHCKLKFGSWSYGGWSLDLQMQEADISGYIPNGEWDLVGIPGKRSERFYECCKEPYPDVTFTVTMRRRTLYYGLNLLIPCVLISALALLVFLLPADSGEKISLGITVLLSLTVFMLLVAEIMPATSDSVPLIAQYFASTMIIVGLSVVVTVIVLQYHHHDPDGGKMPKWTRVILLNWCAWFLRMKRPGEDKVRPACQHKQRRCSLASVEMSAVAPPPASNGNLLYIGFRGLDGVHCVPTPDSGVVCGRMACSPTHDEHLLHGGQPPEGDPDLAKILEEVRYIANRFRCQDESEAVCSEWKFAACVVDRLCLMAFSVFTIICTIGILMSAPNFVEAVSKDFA
# Experiment notes: Electrophysiology screen at 1 μM in Xenopus laevis oocytes
# Assay type: cell-based
# Assay context: 1 μM test compound; Imax = maximal current produced by 3 mM ACh
Structures can show the parent of a compound that is named as a salt.
Would you mind labelling by I/Imax? At or over 0.2 is Condition met, under is Condition not met.

Compound	Target or system	Qualitative label
COCCCOc1ccc2[nH]cc(C(=O)OCC34CCN(CC3)CC4)c2c1C	UniProt P36544	Condition met
O=C(OCC12CCN(CC1)CC2)c1c[nH]c2ccc(F)c(Cl)c12 [Compound 62, hydrochloride]	UniProt P36544	Condition not met
Cc1ccc2[nH]cc(C(=O)OCC34CCN(CC3)CC4)c2c1Cl	UniProt P36544	Condition not met
COc1cc(Cl)cc2[nH]cc(C(=O)OCC34CCN(CC3)CC4)c12.Cl	UniProt P36544	Condition not met
COc1c(OCC(F)(F)F)ccc2[nH]cc(C(=O)OCC34CCN(CC3)CC4)c12	UniProt P36544	Condition not met
Cl.O=C(OCC12CCN(CC1)CC2)c1c[nH]c2cccc(C(F)(F)F)c12	UniProt P36544	Condition not met
Cc1cc2[nH]cc(C(=O)OCC34CCN(CC3)CC4)c2cc1F [Compound 72, hydrochloride]	UniProt P36544	Condition met
Cc1cc2[nH]cc(C(=O)OCC34CCN(CC3)CC4)c2cc1C.Cl	UniProt P36544	Condition met
Cc1cc(Cl)c2c(C(=O)OCC34CCN(CC3)CC4)c[nH]c2c1.Cl	UniProt P36544	Condition met

* * *

Reported Ki by item:
# Target or system: rat brain nicotinic receptor (α7 NAChR) (Rattus norvegicus (Rat), UniProt Q05941)
# Sequence (Q05941 23-502 limits assumed): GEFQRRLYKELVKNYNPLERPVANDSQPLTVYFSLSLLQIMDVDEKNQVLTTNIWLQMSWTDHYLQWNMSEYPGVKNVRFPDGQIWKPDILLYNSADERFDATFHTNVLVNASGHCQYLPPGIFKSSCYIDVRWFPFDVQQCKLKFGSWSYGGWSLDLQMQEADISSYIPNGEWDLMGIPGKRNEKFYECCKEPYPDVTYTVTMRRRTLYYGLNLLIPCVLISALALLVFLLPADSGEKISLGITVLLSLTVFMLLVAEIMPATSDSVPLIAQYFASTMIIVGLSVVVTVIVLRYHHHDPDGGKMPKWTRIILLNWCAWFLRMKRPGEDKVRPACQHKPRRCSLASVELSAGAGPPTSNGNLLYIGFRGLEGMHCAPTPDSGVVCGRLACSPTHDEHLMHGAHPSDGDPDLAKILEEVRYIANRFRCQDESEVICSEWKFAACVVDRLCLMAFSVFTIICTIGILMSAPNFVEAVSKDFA
# Format: binding

Compound	Ki, nM
COc1ccc2[nH]cc(C(=O)OCC34CCN(CC3)CC4)c2c1Cl	20.6
COc1cc(Br)c2c(C(=O)OCC34CCN(CC3)CC4)c[nH]c2c1	360
Cl.O=C(OCC12CCN(CC1)CC2)c1c[nH]c2cc(Cl)cc(Cl)c12 [Compound 71, hydrochloride]	394
O=C(OCC12CCN(CC1)CC2)c1c[nH]c2ccc(O)cc12	132
O=C(OCC12CCN(CC1)CC2)c1c[nH]c2cc(O)cc(Br)c12	46

* * *

# Experiment notes: Human plasma stability
# Type: in vitro ADME
# Assay context: Protocol No. 2; plasma, 5 μM, 37° C.
Would you mind labelling by % Remaining @ 2 h? At or over 70% is Yes, under is No.

Structure as smiles	Qualitative label
Cl.O=C(OCC12CCN(CC1)CC2)c1c[nH]c2cc(C(F)(F)F)ccc12	No
Cl.O=C(OCC12CCN(CC1)CC2)c1c[nH]c2cc(F)cc(Cl)c12	Yes
COc1cc2[nH]cc(C(=O)OCC34CCN(CC3)CC4)c2cc1OC	No
Cc1ccc2c(C(=O)OCC34CCN(CC3)CC4)c[nH]c2c1.Cl	No
COc1cc2c(C(=O)OCC34CCN(CC3)CC4)c[nH]c2cc1F	Yes
Cc1cc(Cl)c2c(C(=O)OCC34CCN(CC3)CC4)c[nH]c2c1.Cl	Yes
Cc1cc2c(C(=O)OCC34CCN(CC3)CC4)c[nH]c2cc1C#N	No
O=C(OCC12CCN(CC1)CC2)c1c[nH]c2cc(O)cc(Br)c12	Yes
Cl.O=C(OCC12CCN(CC1)CC2)c1c[nH]c2cc(O)c(F)cc12	No
Cl.O=C(OCC12CCN(CC1)CC2)c1c[nH]c2cc(Cl)c(F)cc12	Yes
Cc1cc2[nH]cc(C(=O)OCC34CCN(CC3)CC4)c2cc1C.Cl	No
COc1cc2c(C(=O)OCC34CCN(CC3)CC4)c[nH]c2cc1C.Cl	No
COc1cc(Cl)cc2[nH]cc(C(=O)OCC34CCN(CC3)CC4)c12.Cl	No

* * *

# Target or system: rat brain nicotinic receptor (α7 NAChR) (Rattus norvegicus (Rat), UniProt Q05941)
# Format: binding
Where a name gives a salt, the structure may show the parent alone.

Compound	IC50
Cl.O=C(OCC12CCN(CC1)CC2)c1c[nH]c2cc(O)c(F)cc12 [Compound 59, hydrochloride]	70.1 nM
Cc1cc2[nH]cc(C(=O)OCC34CCN(CC3)CC4)c2cc1F [Compound 72, hydrochloride]	145 nM
Cl.O=C(OCC12CCN(CC1)CC2)c1c[nH]c2cc3c(cc12)OCCO3 [Compound 30, hydrochloride]	92.5 nM
Cc1ccc2[nH]cc(C(=O)OCC34CCN(CC3)CC4)c2c1	68.1 nM
Cc1cc(Cl)c2c(C(=O)OCC34CCN(CC3)CC4)c[nH]c2c1.Cl [Compound 65, hydrochloride]	63.6 nM

* * *

# Target or system: rat brain nicotinic receptor (α7 NAChR) (Rattus norvegicus (Rat))
# Type: binding
Where a name gives a salt, the structure may show the parent alone.

Compound	Target or system	Ki
Cc1cc2[nH]cc(C(=O)OCC34CCN(CC3)CC4)c2cc1F [Compound 72, hydrochloride]	rat brain nicotinic receptor (α7 NAChR) (Rattus norvegicus (Rat))	125 nM
O=C(OCC12CCN(CC1)CC2)c1c[nH]c2ccc(F)c(Cl)c12 [Compound 62, hydrochloride]	rat brain nicotinic receptor (α7 NAChR) (Rattus norvegicus (Rat))	97.6 nM
COc1cc(Cl)cc2[nH]cc(C(=O)OCC34CCN(CC3)CC4)c12.Cl [Compound 74, hydrochloride]	rat brain nicotinic receptor (α7 NAChR) (Rattus norvegicus (Rat))	154 nM
Cl.O=C(OCC12CCN(CC1)CC2)c1c[nH]c2cc3c(cc12)OCCO3 [Compound 30, hydrochloride]	rat brain nicotinic receptor (α7 NAChR) (Rattus norvegicus (Rat))	81.1 nM

* * *

# Experiment notes: Metabolic stability assay in human liver microsomes (HLM)
# Assay type: in vitro ADME
# Assay context: human, microsomes, 1 μM
Structures can show the parent of a compound that is named as a salt.
Reported HLM by item:
Readout kind: HLM (mL/min/kg)

Molecule	Result value
Cc1cc(Br)c2c(C(=O)OCC34CCN(CC3)CC4)c[nH]c2c1 [Compound 49]	5.963
COc1cc2c(C(=O)OCC34CCN(CC3)CC4)c[nH]c2cc1C#N [Compound 76]	20.5897
Cc1cc2c(C(=O)OCC34CCN(CC3)CC4)c[nH]c2cc1Cl [Compound 78]	0
Cc1ccc2[nH]cc(C(=O)OCC34CCN(CC3)CC4)c2c1Br [Compound 68]	3.48
O=C(OCC12CCN(CC1)CC2)c1c[nH]c2cccc(C3CC3)c12 [Compound 61]	10.81
Cc1ccc2[nH]cc(C(=O)OCC34CCN(CC3)CC4)c2c1C [Compound 70]	0
O=C(OCC12CCN(CC1)CC2)c1c[nH]c2cc(F)cc(Br)c12 [Compound 41]	7.55
Cc1ccc2[nH]cc(C(=O)OCC34CCN(CC3)CC4)c2c1Cl [Compound 63]	0.4623
Cc1cc(F)cc2[nH]cc(C(=O)OCC34CCN(CC3)CC4)c12 [Compound 44]	3.5
O=C(OCC12CCN(CC1)CC2)c1c[nH]c2ccc(F)c(Cl)c12 [Compound 62, hydrochloride]	7.061
Cc1cc(Cl)cc2[nH]cc(C(=O)OCC34CCN(CC3)CC4)c12 [Compound 50]	2.98
COc1cc2c(C(=O)OCC34CCN(CC3)CC4)c[nH]c2cc1O [Compound 86]	7.35
O=C(OCC12CCN(CC1)CC2)c1c[nH]c2cc(O)cc(Cl)c12 [Compound 46]	7.385
COc1cc(C#N)cc2[nH]cc(C(=O)OCC34CCN(CC3)CC4)c12 [Compound 77]	10.4452
Cc1c(F)ccc2[nH]cc(C(=O)OCC34CCN(CC3)CC4)c12 [Compound 43]	5.57
O=C(OCC12CCN(CC1)CC2)c1c[nH]c2ccc(F)c(Br)c12 [Compound 67]	6.65
COc1cc(C)cc2[nH]cc(C(=O)OCC34CCN(CC3)CC4)c12 [Compound 85]	8.18
Cc1cc(O)cc2[nH]cc(C(=O)OCC34CCN(CC3)CC4)c12 [Compound 83]	2.7
COc1ccc2[nH]cc(C(=O)OCC34CCN(CC3)CC4)c2c1Cl [Compound 39]	9.18
Cc1c(OCCO)ccc2[nH]cc(C(=O)OCC34CCN(CC3)CC4)c12 [Compound 95, 2,2,2-trifluoroacetate salt]	2.86
COc1cc(Cl)c2c(C(=O)OCC34CCN(CC3)CC4)c[nH]c2c1 [Compound 38]	8.15
COCCCOc1ccc2[nH]cc(C(=O)OCC34CCN(CC3)CC4)c2c1C [Compound 92]	10.37
COc1cc(Br)c2c(C(=O)OCC34CCN(CC3)CC4)c[nH]c2c1 [Compound 48]	7.539
COc1cc(C)c2c(C(=O)OCC34CCN(CC3)CC4)c[nH]c2c1 [Compound 37]	20.18
Cc1cc(OC(=O)C(C)(C)C)cc2[nH]cc(C(=O)OCC34CCN(CC3)CC4)c12 [Compound 89]	347.66
Cc1cc(C)c2c(C(=O)OCC34CCN(CC3)CC4)c[nH]c2c1 [Compound 54]	5.294
Cc1cc2c(C(=O)OCC34CCN(CC3)CC4)c[nH]c2cc1O [Compound 55]	10.3473
O=C(OCC12CCN(CC1)CC2)c1c[nH]c2cc(Cl)cc(Br)c12 [Compound 42]	12.43
O=C(OCC12CCN(CC1)CC2)c1c[nH]c2ccc3c(c12)OCCO3 [Compound 81]	5.94
Cc1c(OCC(F)(F)F)ccc2[nH]cc(C(=O)OCC34CCN(CC3)CC4)c12 [Compound 94]	2.62
COCCOc1ccc2[nH]cc(C(=O)OCC34CCN(CC3)CC4)c2c1C [Compound 91]	6.14
